Test system: 945468-187-T-J3-PDC spheroids with HUVEC/MSC, viability;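 note: spheroids exposed to agents for 7 days before viability read; 100% = DMSO vehicle control viability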
Test: Anticancer human tumor 945468-187-T-J3-PDC patient-derived rectal carcinoma cell line growth inhibition [PI3K]
Conditions: second compound 0.1 µM; first compound 0.0949 µM; active compounds read low
Source text: Combinatorial screen of targeted agents with the PI3K inhibitors inavolisib, alpelisib, duvelisib, and copanlisib in multi-cell type tumor spheroids A high-throughput screen of multi-cell type tumor spheroids was designed to identify active combinations of targeted small molecules and PI3K pathway inhibitors. […] Compounds. […] If the clinical Cmax for an agent had not been determined, the highest concentration tested was 10 microM. […]
assay_endpoint: viability, T/C

Field: example entries. Status: answers known.
Cn1cnc2c(F)c(Nc3ccc(Br)cc3Cl)c(C(=O)NOCCO)cc21 + CC(Nc1ncnc2nc[nH]c12)c1cc2cccc(Cl)c2c(=O)n1-c1ccccc1; 109%
Cn1cnc2c(F)c(Nc3ccc(Br)cc3Cl)c(C(=O)NOCCO)cc21 + CC(Nc1ccc2c(c1)OCCn1cc(N3C(=O)OCC3C(F)F)nc1-2)C(N)=O; 104%
Cn1cnc2c(F)c(Nc3ccc(Br)cc3Cl)c(C(=O)NOCCO)cc21 + COc1c(OCCCN2CCOCC2)ccc2c3n(c(=NC(=O)c4cnc(N)nc4)nc12)CCN3; 27.4%

Query molecule follows.
Lookup: For Cn1cnc2c(F)c(Nc3ccc(Br)cc3Cl)c(C(=O)NOCCO)cc21 + Cc1nc(NC(=O)N2CCCC2C(N)=O)sc1-c1ccnc(C(C)(C)C(F)(F)F)c1 , what is its reported viability, T/C?
Found: 114%
